# ASSAYED_SYSTEM: T1, RXFP1 receptor (UniProt Q9HBX9 1-757, limits assumed)
# T1 sequence (looked up): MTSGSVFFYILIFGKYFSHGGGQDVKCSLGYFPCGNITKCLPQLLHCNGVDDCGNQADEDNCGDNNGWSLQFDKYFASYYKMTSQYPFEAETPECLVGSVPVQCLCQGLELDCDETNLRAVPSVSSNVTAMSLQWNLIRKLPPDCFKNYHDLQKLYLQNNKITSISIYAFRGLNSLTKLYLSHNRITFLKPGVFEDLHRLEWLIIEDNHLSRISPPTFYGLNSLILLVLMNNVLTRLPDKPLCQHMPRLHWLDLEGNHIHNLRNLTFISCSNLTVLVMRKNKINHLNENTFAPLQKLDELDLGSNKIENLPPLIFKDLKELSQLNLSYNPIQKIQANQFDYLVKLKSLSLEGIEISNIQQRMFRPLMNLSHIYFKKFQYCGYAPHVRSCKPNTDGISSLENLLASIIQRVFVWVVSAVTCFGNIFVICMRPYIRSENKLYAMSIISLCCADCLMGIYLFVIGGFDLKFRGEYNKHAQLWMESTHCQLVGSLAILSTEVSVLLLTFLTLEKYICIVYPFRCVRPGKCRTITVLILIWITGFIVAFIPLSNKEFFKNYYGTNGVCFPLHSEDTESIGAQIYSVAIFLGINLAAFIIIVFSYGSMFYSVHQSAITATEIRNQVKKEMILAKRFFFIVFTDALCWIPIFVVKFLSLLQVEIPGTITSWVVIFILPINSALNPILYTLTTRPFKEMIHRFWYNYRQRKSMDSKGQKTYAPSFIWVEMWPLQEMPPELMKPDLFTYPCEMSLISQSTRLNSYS
# ASSAY_COMMENT: cell-based or functional assay
*1 amine or outer side, *2 acyl side, *3 side chain or, on linkers, in order; H or OH if unused. Primed or numbered codes have the meaning given here. Side-chain parts run from the residue outwards. [ ]: non-standard residue; d: D form. The star is where a group is joined. γGlu = O=C(O)[C@H](CCC(=O)[*:2])N[*:1]; Stearoyl = CCCCCCCCCCCCCCCCCC(=O)*; Palmitoyl = CCCCCCCCCCCCCCCC(=O)*; αMeK = C[C@](N)(CCCCN)C(=O)O; Nle = CCCC[C@H](N)C(=O)O; PEG2′ = PEG2 spacer unit; PEG2″ = not defined here; Aib = CC(C)(N)C(=O)O
METRIC: EC50 (nM), OVCAR 5 cells (cAMP)

I: Ac-LEGREKVRAQI[Aib][Aib]EG[Nle]STWS[Aib]RKKK([PEG2′-PEG2′-γGlu-γGlu-PEG2′-γGlu-Stearoyl])-NH2 [peptide of SEQ ID NO: 99]
II: Ac-LEGREKVRAQI[Aib][Aib]EG[Nle]STWS[Aib]RKKK[PEG2″][PEG2″][PEG2″][γGlu][γGlu][γGlu]K([γGlu-Palmitoyl])-NH2 [peptide of SEQ ID NO: 107]
III: Ac-LEGREKVRAK(Ac)I[Aib][Aib]EG[Nle]STWS[αMeK]RKK(Ac)[PEG2′][PEG2′][PEG2′][PEG2′]K([γGlu-γGlu-γGlu-γGlu-Palmitoyl])-NH2 [peptide of SEQ ID NO: 131]
// TODO: order the 3 binders above by EC50 (nM), OVCAR 5 cells (cAMP), descending Form entry: labels listed in requested order.
II, III, I
